Ref: ChEMBL document CHEMBL5360601

# test_target: Diacylglycerol kinase gamma (Homo sapiens, UniProt P49619)
# Sequence (P49619 whole entry): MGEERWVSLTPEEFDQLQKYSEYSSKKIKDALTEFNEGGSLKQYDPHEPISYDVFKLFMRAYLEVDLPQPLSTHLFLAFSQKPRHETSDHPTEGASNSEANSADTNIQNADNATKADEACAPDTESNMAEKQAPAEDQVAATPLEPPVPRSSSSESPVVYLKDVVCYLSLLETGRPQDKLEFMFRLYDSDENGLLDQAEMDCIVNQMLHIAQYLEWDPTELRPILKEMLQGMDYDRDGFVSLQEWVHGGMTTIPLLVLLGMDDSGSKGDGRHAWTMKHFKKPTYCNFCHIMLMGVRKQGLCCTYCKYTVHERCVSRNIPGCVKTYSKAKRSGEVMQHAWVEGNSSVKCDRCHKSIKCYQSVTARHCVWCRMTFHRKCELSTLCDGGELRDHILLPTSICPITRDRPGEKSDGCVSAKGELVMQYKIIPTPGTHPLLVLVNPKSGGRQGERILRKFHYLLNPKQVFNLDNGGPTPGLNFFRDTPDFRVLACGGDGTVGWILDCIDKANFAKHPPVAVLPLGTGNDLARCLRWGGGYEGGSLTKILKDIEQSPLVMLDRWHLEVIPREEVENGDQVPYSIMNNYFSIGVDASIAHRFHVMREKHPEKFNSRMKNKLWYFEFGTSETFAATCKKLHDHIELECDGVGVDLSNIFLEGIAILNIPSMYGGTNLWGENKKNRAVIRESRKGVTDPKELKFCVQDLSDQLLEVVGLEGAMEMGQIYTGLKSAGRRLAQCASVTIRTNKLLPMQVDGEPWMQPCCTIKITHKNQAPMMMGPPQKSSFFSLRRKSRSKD
measured_attribute: pIC50
# pIC50: negative log10 of molar concentration; output just the value

Task item: Find the measured pIC50: item Cn1c(=O)c([N+](=O)[O-])c(N2CCN(C(c3ccc(F)cc3)c3ccc(F)cc3)CC2)c2nc(C#N)ccc21 , target or system Diacylglycerol kinase gamma (Homo sapiens, UniProt P49619).
Reply: 6.17

* * *

# test_target: UniProt Q13574
# Sequence (Q13574 whole entry): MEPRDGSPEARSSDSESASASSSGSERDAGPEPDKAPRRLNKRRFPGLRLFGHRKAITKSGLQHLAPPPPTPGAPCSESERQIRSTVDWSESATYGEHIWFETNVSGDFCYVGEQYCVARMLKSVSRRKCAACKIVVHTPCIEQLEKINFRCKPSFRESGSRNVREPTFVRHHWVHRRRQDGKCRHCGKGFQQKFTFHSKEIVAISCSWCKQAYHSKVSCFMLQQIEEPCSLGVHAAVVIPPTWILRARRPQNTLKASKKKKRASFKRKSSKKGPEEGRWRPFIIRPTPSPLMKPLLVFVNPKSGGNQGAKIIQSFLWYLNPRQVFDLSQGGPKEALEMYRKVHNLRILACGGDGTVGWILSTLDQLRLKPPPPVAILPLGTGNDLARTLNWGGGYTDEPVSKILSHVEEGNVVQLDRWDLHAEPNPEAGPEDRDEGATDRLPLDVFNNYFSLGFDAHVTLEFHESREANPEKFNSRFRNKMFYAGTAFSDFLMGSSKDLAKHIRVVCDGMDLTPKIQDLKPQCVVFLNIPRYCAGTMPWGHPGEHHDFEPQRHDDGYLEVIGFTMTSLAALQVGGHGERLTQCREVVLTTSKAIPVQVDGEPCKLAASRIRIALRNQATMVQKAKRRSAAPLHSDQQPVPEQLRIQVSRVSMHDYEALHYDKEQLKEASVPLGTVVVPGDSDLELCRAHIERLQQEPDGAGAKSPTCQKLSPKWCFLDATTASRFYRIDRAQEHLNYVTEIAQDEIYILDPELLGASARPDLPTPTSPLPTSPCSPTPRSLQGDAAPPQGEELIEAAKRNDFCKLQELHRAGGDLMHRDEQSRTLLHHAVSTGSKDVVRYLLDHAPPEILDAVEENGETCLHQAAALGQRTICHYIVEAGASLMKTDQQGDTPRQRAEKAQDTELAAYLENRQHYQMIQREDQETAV
measured_attribute: pIC50
# pIC50: negative log10 of molar concentration; output just the value

Task item: Find the measured pIC50: item Cn1c(=O)c([N+](=O)[O-])c(N2CCN(C(c3ccc(F)cc3)c3ccc(F)cc3)CC2)c2cc(C#N)ccc21 , target or system UniProt Q13574.
Reply: 5.00
